Endpoint: IC50. System: UniProt Q12866. Items follow.
Sequence (Q12866 21-999): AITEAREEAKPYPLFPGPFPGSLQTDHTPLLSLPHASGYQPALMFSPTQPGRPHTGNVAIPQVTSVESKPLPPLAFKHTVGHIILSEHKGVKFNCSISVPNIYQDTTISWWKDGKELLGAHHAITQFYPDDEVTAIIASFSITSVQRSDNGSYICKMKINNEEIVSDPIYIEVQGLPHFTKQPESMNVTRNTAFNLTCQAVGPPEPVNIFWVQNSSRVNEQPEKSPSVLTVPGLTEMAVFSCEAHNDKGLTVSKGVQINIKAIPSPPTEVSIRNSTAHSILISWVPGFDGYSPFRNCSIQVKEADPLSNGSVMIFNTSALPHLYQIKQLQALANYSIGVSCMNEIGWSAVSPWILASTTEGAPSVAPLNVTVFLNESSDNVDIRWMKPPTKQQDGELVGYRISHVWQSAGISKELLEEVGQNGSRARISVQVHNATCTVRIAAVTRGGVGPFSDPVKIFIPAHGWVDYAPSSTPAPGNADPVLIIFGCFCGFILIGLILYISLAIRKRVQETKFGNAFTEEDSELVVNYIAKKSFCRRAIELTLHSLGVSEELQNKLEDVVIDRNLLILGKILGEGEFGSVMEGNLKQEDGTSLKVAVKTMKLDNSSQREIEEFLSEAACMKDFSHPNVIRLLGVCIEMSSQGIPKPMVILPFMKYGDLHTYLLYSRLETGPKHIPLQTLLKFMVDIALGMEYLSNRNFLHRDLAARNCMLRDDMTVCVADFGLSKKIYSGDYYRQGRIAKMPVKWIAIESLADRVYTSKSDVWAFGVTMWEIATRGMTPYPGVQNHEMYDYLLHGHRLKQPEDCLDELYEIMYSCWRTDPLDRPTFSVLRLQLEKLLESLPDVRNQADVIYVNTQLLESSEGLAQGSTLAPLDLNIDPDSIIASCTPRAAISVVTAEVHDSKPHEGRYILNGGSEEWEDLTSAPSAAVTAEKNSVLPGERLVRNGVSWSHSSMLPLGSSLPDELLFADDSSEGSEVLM

// fetch UniProt Q12866 IC50 for CCC[C@H](C)Nc1ncc2c(C3CCN(C(=O)C4CCN(C)C4)CC3)cn([C@H]3CC[C@H](O)CC3)c2n1 (stereo partly drawn)
< 0.01 µM

// fetch UniProt Q12866 IC50 for Cc1cc(C(=O)N2CCC(c3cn([C@H]4CC[C@H](O)CC4)c4nc(NCCC5CC5)ncc34)CC2)cc(C)n1
< 0.01 µM

// fetch UniProt Q12866 IC50 for CCC[C@H](C)Nc1ncc2c(C3CCN(C(=O)[C@@H]4CCCNC4)CC3)cn([C@H]3CC[C@H](O)CC3)c2n1
< 0.01 µM

// fetch UniProt Q12866 IC50 for CCC[C@H](C)Nc1ncc2c(C3CCN(C(=O)C4CCN(CCF)CC4)CC3)cn([C@H]3CC[C@H](O)CC3)c2n1
< 0.01 µM

// fetch UniProt Q12866 IC50 for CCC[C@H](C)Nc1ncc2c(C3CCN(C(=O)C4CCCN4)CC3)cn([C@H]3CC[C@H](O)CC3)c2n1 (stereo partly drawn)
< 0.01 µM

Further cases:
// fetch UniProt Q12866 IC50 for CCC[C@H](C)Nc1ncc2c(C3CCN(C(=O)c4ccc(CN(C)C)cc4)CC3)cn([C@H]3CC[C@H](O)CC3)c2n1
< 0.01 µM

// fetch UniProt Q12866 IC50 for CCC[C@H](C)Nc1ncc2c(C3CCN(C(=O)c4ccccc4OC)CC3)cn([C@H]3CC[C@H](O)CC3)c2n1
< 0.01 µM

// fetch UniProt Q12866 IC50 for Cc1cc(C(=O)N2CCC(c3cn([C@H]4CC[C@H](O)CC4)c4nc(NCCCC(F)(F)F)ncc34)CC2)cc(C)n1
< 0.01 µM

// fetch UniProt Q12866 IC50 for CCC[C@H](C)Nc1ncc2c(C3CCN(C(=O)C4CCNCC4)CC3)cn([C@H]3CC[C@H](O)CC3)c2n1
< 0.01 µM

// fetch UniProt Q12866 IC50 for C[C@H](Nc1ncc2c(C3CCN(CC4CCCCC4)CC3)cn([C@H]3CC[C@H](O)CC3)c2n1)c1ccccc1
< 0.01 µM

// fetch UniProt Q12866 IC50 for CCC[C@H](C)Nc1ncc2c(C3CCN(C(=O)[C@H]4CCCCN4)CC3)cn([C@H]3CC[C@H](O)CC3)c2n1
< 0.01 µM

// fetch UniProt Q12866 IC50 for CCC[C@H](C)Nc1ncc2c(C3CCN(S(=O)(=O)C4CCN(C)CC4)CC3)cn([C@H]3CC[C@H](O)CC3)c2n1
< 0.01 µM

// fetch UniProt Q12866 IC50 for CCC[C@H](C)Nc1ncc2c(C3CCN(C(=O)c4cc(F)cc(F)c4)CC3)cn([C@H]3CC[C@H](O)CC3)c2n1
< 0.01 µM

// fetch UniProt Q12866 IC50 for CCC[C@H](C)Nc1ncc2c(C3CCN(C(=O)c4ccc(N)cc4)CC3)cn([C@H]3CC[C@H](O)CC3)c2n1
< 0.01 µM

// fetch UniProt Q12866 IC50 for CCC[C@H](C)Nc1ncc2c(C3CCN(C(=O)c4cc(OC)cc(OC)c4)CC3)cn([C@H]3CC[C@H](O)CC3)c2n1
< 0.01 µM

---

Let's look at some compounds and their measured IC50.
biological target: UniProt:Q12866

// IC50 lookup, key: CCC[C@H](C)Nc1ncc2c(C3CCN(C(=O)c4nccs4)CC3)cn([C@H]3CC[C@H](O)CC3)c2n1
< 10 nM

// IC50 lookup, key: CCC[C@H](C)Nc1ncc2c(C3CCN(C(=O)c4cc(C)nc(C)c4)CC3)cn([C@H]3CC[C@H](O)CC3)c2n1
< 10 nM

// IC50 lookup, key: CCC[C@H](C)Nc1ncc2c(C3CCN(C(=O)C4CCCN4C)CC3)cn([C@H]3CC[C@H](O)CC3)c2n1 (stereo partly shown)
< 10 nM

// IC50 lookup, key: CCC[C@H](C)Nc1ncc2c(C3CCN(C(=O)c4cc(C)nc(C)c4)CC3)cn([C@H]3CC[C@H](C(F)F)CC3)c2n1
< 10 nM

// IC50 lookup, key: CCC[C@H](C)Nc1ncc2c(C3CCN(C(=O)c4ccc[nH]4)CC3)cn([C@H]3CC[C@H](O)CC3)c2n1
< 10 nM

Further cases:
// IC50 lookup, key: CCC[C@H](C)Nc1ncc2c(C3CCN(C(=O)c4cc(C)nc(C)c4)CC3)cn([C@H]3CC[C@H](N)CC3)c2n1
< 10 nM

// IC50 lookup, key: Cc1cc(C(=O)N2CCC(c3cn([C@H]4CC[C@H](O)CC4)c4nc(N[C@@H](C)c5ccc(F)cc5)ncc34)CC2)cc(C)n1
< 10 nM
